Parameter GI50: see the listing below.
# System: M14
# EXPERIMENT: NCI tumour cell line growth inhibition, 48 h
Active and inactive are the calls of the source. Cut-off read from the data, not from the text of the source: active = GI50 up to about 1.1 µM and inactive = higher.
ENDPOINT: GI50

1. CCOc1cccc2nc3cccc(C(=O)NCCN(C)C)c3nc12 2.19 µM (inactive)
2. OC(c1cc(C(O)(C(F)(F)F)C(F)(F)F)ncn1)(C(F)(F)F)C(F)(F)F > 10 µM (inactive)
3. O=C(N/N=C\c1ccc([N+](=O)[O-])s1)c1ccncc1 11.6 µM (inactive)

----------
# Tested on: CAKI-1
# EXPERIMENT: NCI tumour cell line growth inhibition, 48 h
Active and inactive are the calls of the source. Cut-off read from the data, not from the text of the source: active = GI50 up to about 1.1 µM and inactive = higher.

COMPOUND	ASSAYED_TARGET	GI50
COc1cccc(NC(=O)CC(=O)n2nc(C)c(/N=N/c3ccccc3)c2C)c1	CAKI-1	> 100 µM (inactive)
Cc1nc(C(N)=S)sc1C(=O)C/C(=N/N)C(=O)Nc1cccc(Cl)c1C	CAKI-1	> 100 µM (inactive)
Cc1cc(NS(=O)(=O)c2ccc(NC(=O)c3cccc4cc5ccccc5nc34)cc2)no1	CAKI-1	21.9 µM (inactive)
Fc1ccc(Nc2nc(Cl)c3nc[nH]c3n2)cc1Cl	CAKI-1	6.97 µM (inactive)
CC1(C)CC(=O)c2c(nc3ccc4ccccc4c3c2-c2ccc(NC(=O)CCCC(=O)Nc3ccc(-c4c5c(nc6ccc7ccccc7c46)CC(C)(C)CC5=O)cc3)cc2)C1	CAKI-1	> 100 µM (inactive)
CC(C)(Br)C(=O)/C=C/c1ccccc1	CAKI-1	6.12 µM (inactive)
COc1ccc(/C=C2\CCC(CCN3CCOCC3)C2=O)cc1 (stereo not drawn)	CAKI-1	> 100 µM (inactive)
O=P1(Oc2ccc(Cl)cc2Cl)Oc2cc3ccccc3cc2O1	CAKI-1	> 71.8 µM (inactive)
O=C1c2ccccc2CC1C1(O)C(=O)Nc2c(Cl)cc(Cl)cc21 (stereo not drawn)	CAKI-1	> 100 µM (inactive)
Cc1oc2nc(N(C)C)nc(Cl)c2c1C	CAKI-1	49.4 µM (inactive)
COc1c(C2(c3ccc(F)cc3)SCCCS2)c(=O)c1=O	CAKI-1	> 100 µM (inactive)
Oc1c(CN2CCOCC2)ccc(CN2CCOCC2)c1O	CAKI-1	52 µM (inactive)
COc1ccc(-c2c(C#N)c(N)n(C3OCC(O)C(O)C3O)c(=S)c2C#N)cc1 (stereo not drawn)	CAKI-1	> 100 µM (inactive)
Cc1[nH]n(-c2nc(-c3ccccc3)cc(=O)[nH]2)c(=O)c1CCO	CAKI-1	> 100 µM (inactive)
O=C1C(C(O)(C(F)(F)Cl)C(F)(F)Cl)CCCC1C(O)(C(F)(F)Cl)C(F)(F)Cl (stereo not drawn)	CAKI-1	> 10 µM (inactive)
O=C1c2ccccc2C(=O)N1CC1S(=O)(=O)OCCOS1(=O)=O	CAKI-1	> 100 µM (inactive)
Cn1c(=O)n2c(-c3ccccc3)c(-c3ccccc3)n2c1=O	CAKI-1	> 100 µM (inactive)
CO/N=C(\C)c1cccc(Nc2nc3ccccc3c3occc23)c1	CAKI-1	10.8 µM (inactive)
CCOc1c(Cc2ccccc2)c(=O)n2c3ccccc3n3c(=O)n(C)c(=O)c1c23	CAKI-1	> 100 µM (inactive)
C#CC[C@]12CC(=O)CC[C@H]1CC(=O)C2	CAKI-1	> 100 µM (inactive)
CC(C)=CC[S+]([O-])c1ccccc1NC1=CC(=O)CC(C)(C)C1 (stereo not drawn)	CAKI-1	> 100 µM (inactive)
COc1ccc(/C=C(\C#N)c2nc(N)nc(N3N=C(C)CC3(C)C)n2)c(O)c1	CAKI-1	17.2 µM (inactive)
COC(=O)c1ccc(C)cc1/C=C1\Cc2ccc(C)cc2C1=O	CAKI-1	26.3 µM (inactive)
COc1ccc(C(SCCO)(c2ccc(OC)cc2)c2ccc(OC)cc2)cc1	CAKI-1	20.6 µM (inactive)
CCCCCCCCCCOC1C(C(C)OCCCN(C)C)OC2OC3(CCCCC3)OC21 (stereo not drawn)	CAKI-1	13.7 µM (inactive)
COc1ccc(Nc2nc3ccc(C(F)(F)F)cc3nc2C(=O)O)cc1OC	CAKI-1	39.5 µM (inactive)
O=C1CCCCC(=O)Nc2ccccc2N1	CAKI-1	> 100 µM (inactive)
Cc1ccc(C)c(C2NC(=O)c3ccccc3N2)c1 (stereo not drawn)	CAKI-1	3.27 µM (inactive)
Oc1ccc(SCc2cc(O)ccc2O)cc1	CAKI-1	6.14 µM (inactive)
COc1cc(Nc2cnc3cc(F)c(F)cc3n2)cc(OC)c1OC	CAKI-1	> 100 µM (inactive)
O=C(N/N=C\c1ccc([N+](=O)[O-])s1)c1ccncc1	CAKI-1	27.9 µM (inactive)
N/C(=N\Nc1cccc(Cl)c1)c1cccnc1	CAKI-1	3.49 µM (inactive)
Nc1nc(N)c2ncn(Cc3ccccc3CO)c2n1	CAKI-1	> 100 µM (inactive)
CCC1OC2(C)CC(C#N)(C#N)C1(C#N)C(=N)O2 (stereo not drawn)	CAKI-1	> 100 µM (inactive)
CCOC(=O)c1ccc(/N=C2\SC(=S)N(c3ccc(F)cc3)\C2=N/c2ccc(C(=O)OCC)cc2)cc1	CAKI-1	21.9 µM (inactive)
C=CCOC(=O)C1=C(CCC[C@@H](C)O[Si](C)(C)C(C)(C)C)N=C(N)N2[C@H](CCO)CC[C@@H]12	CAKI-1	13.4 µM (inactive)
O=[N+]([O-])c1cccc(-c2nc(-c3ccccc3)c(-c3ccccc3)[nH]2)c1	CAKI-1	> 100 µM (inactive)
NCCCN(CCCCN(CCCN)C(=O)OCc1ccccc1)C(=O)OCc1ccccc1	CAKI-1	> 100 µM (inactive)

----------
# Test system: HOP-62
# EXPERIMENT: NCI tumour cell line growth inhibition, 48 h
Activity calls are given as the source filed them. Rule as the data show it: active = GI50 up to about 1.1 µM and inactive = higher.
Classes used: y for active, n for inactive

MOLECULE	ASSIGNED_CLASS
NC12c3c4cccc3Oc3cccc(c31)Oc1cccc(c12)O4	n
Cc1ccc(N(C)S(=O)(=O)c2ccccc2)cc1	n
O=P1(Oc2ccc(Cl)cc2Cl)Oc2cc3ccccc3cc2O1	n
CCOC(=O)[C@@H]1ON2O[C@@H](OC3CCCCC3c3ccccc3)C[C@H]3OC(=O)[C@@H]1C32 (some centres undefined)	n
Cc1ccc(C)c(C2NC(=O)c3ccccc3N2)c1 (centres undefined)	n
CC(=O)OCCOCNC(=S)N/N=C/c1cc([N+](=O)[O-])ccc1O	n
CCCCCCCCCCOC1C(C(C)OCCCN(C)C)OC2OC3(CCCCC3)OC21 (centres undefined)	n
CCCCCCCN(CCCCCCC)CC(O)c1cc2ccccc2c2cc(Br)ccc12 (centres undefined)	n
CCOC(=O)Oc1ccc2c(c1)c(=O)c1c(NCCN(CC)CC)ccc3nnn2c31	n
CC1OC(OC2C(O[C@H]3CC[C@@]4(C)C(=CC[C@H]5[C@@H]6C[C@@H]7O[C@]8(CC[C@@H](CO)CO8)[C@@H](C)[C@@H]7[C@@]6(C)CC[C@@H]54)C3)OC(CO)C(O)C2OC2OC(CO)C(O)C(O)C2O)C(O)C(O)C1O (some centres undefined)	n
Oc1cc(-c2cccc(Br)c2)nc2cc3c(cc12)OCO3	n
C=C1CCCC2OC(OC)CCC12 (centres undefined)	n
CCN1C[C@]2(C)CC[C@H](OC)C34C5C[C@@H]6[C@@H](OC)C[C@@](OC)(C5[C@H]6OCc5ccccc5)C(C13)[C@H](OC(C)=O)[C@@H]42 (some centres undefined)	n
O=C(CCc1nnc(S)[nH]1)Nc1cccc(C(F)(F)F)c1	n
O=C1c2ccccc2C(=O)N1CC1S(=O)(=O)OCCOS1(=O)=O	n
CCOC(=O)/C(=C/c1ccc(OC)c(OC)c1)C(=O)c1ccccc1	n
COc1ccc(C2N(c3ccc(F)cc3)C(=O)N3C(c4ccc(OC)cc4)N(c4ccc(F)cc4)C(=O)N23)cc1 (centres undefined)	n
CCC12C=CCN3CC[C@]4(C(=C(C(=O)OC)[C@@H]1Nc1ncnc5c1ncn5C1OC(COC(C)=O)C(OC(C)=O)C1OC(C)=O)Nc1ccccc14)C32 (some centres undefined)	n
CC(C)(Br)C(=O)/C=C/c1ccccc1	n
CC1C(=O)N(C)C2(CO)C(=O)O[C@H](C)C12O (some centres undefined)	n
O=c1c2cc(Br)ccc2nc(CCl)n1-c1ccc(O)c([N+](=O)[O-])c1	n
Cc1ccc(Nc2nc(NNC(=O)Cc3ccccc3)nc(NNC(=O)c3ccncc3)n2)cc1	n
CC(C)(C)c1ccc(O)c(CN(Cc2cc(C(C)(C)C)ccc2O)c2ccccc2)c1	n
O[C@]12C=C(c3nccc4c3[nH]c3ccccc34)[C@@H]3CCN(CCCC/C=C\CC1)C[C@@]31CC3/C=C\CCCCN3[C@H]12 (some centres undefined)	y
O=C1CC2OCC=C3CN4CCC5(C(=O)O)C(N1)C2C3CC45 (centres undefined)	n
CCN(CCCOc1ccccc1)CCN(CC)CCCOc1ccccc1	n
COC(=O)Cn1c(=O)oc2nc(-c3ccccc3)cc(C(F)(F)F)c21	n
N#CC(C(=O)C(=O)Nc1ccc(Cl)c(Cl)c1)c1ccc(Cl)cc1 (centres undefined)	n
O=C(O)CCN(CCC(=O)O)c1ccc(/C=C2\SC(=S)NC2=O)cc1	n
